Data provenance is patent US7109193B2.

- Target System: human oxytocin receptor (Homo sapiens)
- Construct: host or cells: CHO cells (pcDNA3.1 vector)
- Sequence (P30559 whole entry): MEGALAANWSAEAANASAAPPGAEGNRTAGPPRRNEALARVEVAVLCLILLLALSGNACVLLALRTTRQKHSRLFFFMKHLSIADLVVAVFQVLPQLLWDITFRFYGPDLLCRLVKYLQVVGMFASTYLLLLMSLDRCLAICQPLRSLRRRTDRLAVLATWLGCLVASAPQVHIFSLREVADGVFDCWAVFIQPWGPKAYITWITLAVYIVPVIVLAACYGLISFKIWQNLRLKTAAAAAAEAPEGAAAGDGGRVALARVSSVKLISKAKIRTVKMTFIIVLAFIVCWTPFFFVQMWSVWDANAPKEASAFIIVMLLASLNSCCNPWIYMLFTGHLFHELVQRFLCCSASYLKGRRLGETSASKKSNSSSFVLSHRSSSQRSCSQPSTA
- Measurement Description: Oxytocin binding in Chinese Hamster Ovary cell membranes expressing human oxytocin receptors
- Conditions: 100 nM, CHO cell membranes, [3H]oxytocin, values without parentheses, read-out: OT % inhibition @ 100% nM
# Lookup of reported inhibition at 0.1 µM keyed by entry

[
  {
    "Compound": "COc1ccccc1-c1ccc(C(=O)N2Cc3ccc(C(=O)N(C)CCCN(C)C)n3Cc3ccccc32)cc1C [Example 100]",
    "inhibition at 0.1 µM / %": 98
  },
  {
    "Compound": "COc1ccccc1-c1ccc(C(=O)N2Cc3ccc(C(=O)N4CCN(C(C)C)CC4)n3Cc3ccccc32)cc1OC [Example 241]",
    "inhibition at 0.1 µM / %": 51
  },
  {
    "Compound": "COc1ccccc1-c1ccc(C(=O)N2Cc3ccc(C(=O)N4CCCN(C)CC4)n3Cc3ccccc32)cc1C [Example 62]",
    "inhibition at 0.1 µM / %": 91
  },
  {
    "Compound": "COc1cccc(-c2cc(OC)c(C(=O)N3Cc4ccc(C(=O)N[C@@H](CCCCNC(=O)OC(C)(C)C)C(N)=O)n4Cc4ccccc43)cc2Cl)c1 [Example 302]",
    "inhibition at 0.1 µM / %": 64
  }
]
